As shown below, each of these sequences has a reported protein stability index value.
- Procedure Text: protein stability index of a GFP-peptide fusion (yeast GPS) (PSI 1-4); higher = more stable; sorted into four equal gates, so the index is relative within each strain
- Reported Conditions: san1∆
Enter a number only.

[[record]]
sequence_data = "MSSTTPKLESVKWQYDP [SNF12]"
measured = 3.09

[[record]]
sequence_data = "NKVHETSSKSSSLSAII [YDL088C/ASM4]"
measured = 2.81

[[record]]
sequence_data = "SIMPDLYFYRDPEEVEQ [RPS0A]"
measured = 2.94

[[record]]
sequence_data = "KNKKIEVYTKTIEVLDE [POP7]"
measured = 2.45

[[record]]
sequence_data = "AVSAASVVSMSNDVLKP [SIR2]"
measured = 2.82

[[record]]
sequence_data = "THAQRTGLSQIPNRRFT [PRP8]"
measured = 2.83


For the sequence IRLSKILEDDFAVALKN [CDC53] , give its measured protein stability index value.
3.04

For the sequence DAVEGVSECIILGQTMS [RPO31] , give its measured protein stability index value.
1.45

For the sequence LQHELMISIIKLVTNVV [YML103C/NUP188] , give its measured protein stability index value.
1.56

For the sequence DLTMGQVGERIKQTFKN [RPO21] , give its measured protein stability index value.
3.25

For the sequence CKKKEMSQYQSTMKENK [YIL149C/MLP2] , give its measured protein stability index value.
1.42

For the sequence KELQQLQKQILTVENKL [SMC1] , give its measured protein stability index value.
1.98

###

- Procedure Text: protein stability index of a GFP-peptide fusion (yeast GPS) (PSI 1-4); higher = more stable; sorted into four equal gates, so the index is relative within each strain
- Reported Conditions: doa10∆
Readout Label: protein stability index
Enter a number only.

# example entries with known answers
[[record]]
sequence_data = "NNTNNNNTNTGASGVDD [SWI1]"
readout_label = "protein stability index"
measured = 2.75

[[record]]
sequence_data = "LEALMDILLCYQKLFSQ [SRB8]"
readout_label = "protein stability index"
measured = 2.98

[[record]]
sequence_data = "SENQRQIFCVFSGKGVH [GRR1]"
readout_label = "protein stability index"
measured = 2.94

[[record]]
sequence_data = "AILRQQQQMANNNGNPG [GAL11]"
readout_label = "protein stability index"
measured = 2.77


For the sequence KAPLQPNSERETDHANT [IRR1] , give its measured protein stability index value.
2.6

For the sequence KSAMDTFKSVSKYGMLL [POP3] , give its measured protein stability index value.
2.41

For the sequence QKNFMDQFQWILRKPGK [RRI2] , give its measured protein stability index value.
2.42

For the sequence ILIESRIHRLARYYRTV [RPS13] , give its measured protein stability index value.
2.45

For the sequence MIQKVMEYLKSSKSLDL [RPN5] , give its measured protein stability index value.
2.6

###

- Procedure Text: protein stability index of a GFP-peptide fusion (yeast GPS) (PSI 1-4); higher = more stable; sorted into four equal gates, so the index is relative within each strain
- Reported Conditions: doa10∆
As shown below, each of these sequences has a reported protein stability index value.

[[record]]
sequence_data = "TFEKHDRVEDICERIFE [RRI2]"
measured = 2.68


For the sequence FEASCMEGQKLDDPVLN [YJR042W/NUP85] , give its measured protein stability index value.
1.83

For the sequence RKVRTKKWKKYWQYKAG [SWP82] , give its measured protein stability index value.
2.47

For the sequence QIIFGVVEKKTVGSSNG [RPO21] , give its measured protein stability index value.
1.66

For the sequence RNRDIALFQPPNFDWDL [ROX3] , give its measured protein stability index value.
3.12

For the sequence QTGIFVYQNNITPSAMK [RPB5] , give its measured protein stability index value.
3.06

For the sequence NTFKVLSKFFFFIFVFN [COB] , give its measured protein stability index value.
1.66

For the sequence IIELENINAKMETRINI [YIL149C/MLP2] , give its measured protein stability index value.
3.06

For the sequence ELEFIQSLANIQYVTYL [SOH1] , give its measured protein stability index value.
2.48

For the sequence ELEQLVEFNRKVVIPNL [RPN3] , give its measured protein stability index value.
3.3

For the sequence IFLQQFLQELLKKVQQQ [SWI1] , give its measured protein stability index value.
2.94

For the sequence QFVSKLVDNLNAEVVAG [BRR2] , give its measured protein stability index value.
2.25

###

- Procedure Text: protein stability index of a GFP-peptide fusion (yeast GPS) (PSI 1-4); higher = more stable; sorted into four equal gates, so the index is relative within each strain
- Reported Conditions: doa10∆
Think of 2 as a floor: if protein stability index stands on it or above, it is criterion met; beneath it, criterion not met.

[[record]]
sequence_data = "EMNLHVPQSEETRAELS [RPO21]"
class_assignment = "criterion met"

[[record]]
sequence_data = "FKKLTKDIFRYMQRTVE [RPB2]"
class_assignment = "criterion not met"

[[record]]
sequence_data = "SKATGAPSANQGDEALS [RTT102]"
class_assignment = "criterion met"

[[record]]
sequence_data = "KGETNSEISIIDATLKE [RRP45]"
class_assignment = "criterion met"

[[record]]
sequence_data = "NVTMIDDLIHFTLKQWN [COR1]"
class_assignment = "criterion met"


Given the entry DAGKIDKHLYHVLYKES [RPL19A] , answer whether its protein stability index meets or surpasses 2.
criterion met

Given the entry LDIPNVSLVVNFQISKK [PRP28] , answer whether its protein stability index meets or surpasses 2.
criterion met

Given the entry HGVLQGTSQNYGTATAD [MED1] , answer whether its protein stability index meets or surpasses 2.
criterion met

Given the entry SSGDFDDNNNNNNNNNN [GRR1] , answer whether its protein stability index meets or surpasses 2.
criterion met

Given the entry ELISYRNESLKNNSSIR [SRB8] , answer whether its protein stability index meets or surpasses 2.
criterion met

Given the entry MNGNTNANTVFAGSNNQ [YOR098C/NUP1] , answer whether its protein stability index meets or surpasses 2.
criterion met

Given the entry NTLLQQQNYSKVLLPSI [SWI1] , answer whether its protein stability index meets or surpasses 2.
criterion met

Given the entry TPSTETAASVFKELCYE [PRE3] , answer whether its protein stability index meets or surpasses 2.
criterion not met

Given the entry KPIYKDTRFGGRMDMTR [SSN2] , answer whether its protein stability index meets or surpasses 2.
criterion met

Given the entry GGDVVKFQKLLQNSERD [SMC4] , answer whether its protein stability index meets or surpasses 2.
criterion met

Given the entry LFAREIAKSQDKKSCSV [DPB4] , answer whether its protein stability index meets or surpasses 2.
criterion met

Given the entry AGETLILDGLTVRLVNL [SRB2] , answer whether its protein stability index meets or surpasses 2.
criterion met

###

- Procedure Text: protein stability index of a GFP-peptide fusion (yeast GPS) (PSI 1-4); higher = more stable; sorted into four equal gates, so the index is relative within each strain
- Reported Conditions: san1∆
Think of 3 as a floor: if protein stability index stands on it or above, it is y; beneath it, n.

[[record]]
sequence_data = "VAAFVNNYPNVELTYSL [BRR2]"
class_assignment = "n"


Given the entry STKKKILGIHTSKMNLS [RPT2] , answer whether its protein stability index meets or surpasses 3.
y

Given the entry SRQKSGLFDSFTNGVLA [YML031W/NDC1] , answer whether its protein stability index meets or surpasses 3.
n

Given the entry KVTQMTPAPKISYKKGA [RPL36B] , answer whether its protein stability index meets or surpasses 3.
y

Given the entry QNRPYNHPELQGITRNV [RPC17] , answer whether its protein stability index meets or surpasses 3.
n

###

- Procedure Text: protein stability index of a GFP-peptide fusion (yeast GPS) (PSI 1-4); higher = more stable; sorted into four equal gates, so the index is relative within each strain
- Reported Conditions: san1∆
Think of 3 as a floor: if protein stability index stands on it or above, it is rule met; beneath it, rule not met.

[[record]]
sequence_data = "MMMQQQLKNVQLDSYLV [MED2]"
class_assignment = "rule not met"

[[record]]
sequence_data = "QGNPKKRPGKLSDYIPG [CYT1]"
class_assignment = "rule met"

[[record]]
sequence_data = "KRSFSSTLKSFFTNPNK [YOR098C/NUP1]"
class_assignment = "rule not met"


Could you now consider this next sequence?
Given the entry NGDNSTTTNTDQNNATM [SNF12] , answer whether its protein stability index meets or surpasses 3.
rule not met

###

- Procedure Text: protein stability index of a GFP-peptide fusion (yeast GPS) (PSI 1-4); higher = more stable; sorted into four equal gates, so the index is relative within each strain
- Reported Conditions: san1∆
Readout Label: protein stability index
Enter a number only.

# example entries with known answers
[[record]]
sequence_data = "TELMNRSPLVTPMDESS [SRP72]"
readout_label = "protein stability index"
measured = 3.03

[[record]]
sequence_data = "PSPPNVIITDGTLLRED [YDL088C/ASM4]"
readout_label = "protein stability index"
measured = 2.97


Consider the record given below.
For the sequence REPRVVSALQMLKQHLF [PUP1] , give its measured protein stability index value.
3.02
